TGT: FAK (Homo sapiens, UniProt Q05397)
Sequence (Q05397 whole entry): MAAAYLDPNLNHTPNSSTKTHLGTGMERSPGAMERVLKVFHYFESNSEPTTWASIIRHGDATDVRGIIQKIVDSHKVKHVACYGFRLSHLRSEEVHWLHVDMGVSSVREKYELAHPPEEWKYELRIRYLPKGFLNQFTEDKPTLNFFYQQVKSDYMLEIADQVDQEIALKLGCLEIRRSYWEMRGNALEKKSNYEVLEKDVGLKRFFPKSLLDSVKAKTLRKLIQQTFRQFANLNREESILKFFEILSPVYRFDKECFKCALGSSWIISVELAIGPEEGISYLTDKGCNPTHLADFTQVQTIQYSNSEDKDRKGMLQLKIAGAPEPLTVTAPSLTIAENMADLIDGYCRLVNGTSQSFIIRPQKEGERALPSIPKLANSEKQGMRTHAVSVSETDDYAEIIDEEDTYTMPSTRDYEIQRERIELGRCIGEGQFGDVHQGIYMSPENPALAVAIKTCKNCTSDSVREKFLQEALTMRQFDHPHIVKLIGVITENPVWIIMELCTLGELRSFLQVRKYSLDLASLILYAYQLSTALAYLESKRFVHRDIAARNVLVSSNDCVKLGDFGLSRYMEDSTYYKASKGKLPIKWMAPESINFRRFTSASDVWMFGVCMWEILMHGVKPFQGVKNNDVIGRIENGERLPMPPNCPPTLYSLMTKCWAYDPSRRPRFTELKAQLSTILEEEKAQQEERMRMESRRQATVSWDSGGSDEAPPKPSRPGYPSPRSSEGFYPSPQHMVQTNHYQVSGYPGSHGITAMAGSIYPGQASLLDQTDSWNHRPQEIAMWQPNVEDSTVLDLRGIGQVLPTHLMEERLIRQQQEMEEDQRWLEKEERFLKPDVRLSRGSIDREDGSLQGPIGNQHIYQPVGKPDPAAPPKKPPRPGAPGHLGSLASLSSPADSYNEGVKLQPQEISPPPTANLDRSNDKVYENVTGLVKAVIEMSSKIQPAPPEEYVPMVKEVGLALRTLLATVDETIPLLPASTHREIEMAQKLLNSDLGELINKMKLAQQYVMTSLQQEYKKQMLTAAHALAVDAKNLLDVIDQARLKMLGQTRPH
TEST PROTOCOL: FAK degradation by immunoblot in PA-TU-8988T cells
Format: cell-based
Set-up: endogenous in cells; host or cells: PA-TU-8988T
REPORTED CONDITIONS: PA-TU-8988T cells, 4 hours, immunoblot
MEASUREMENT KIND: Concentration of maximal degradation of FAK protein (nM)
Numbers only here, please. The scale is nM.

Looking up CNC(=O)c1ccccc1Nc1cc(Nc2ccc(N3CCN(CCCCCCNC(=O)COc4cccc5c4C(=O)N(C4CCC(=O)NC4=O)C5=O)CC3)cc2OC)ncc1C(F)(F)F (stereo not drawn) , I see its Concentration of maximal degradation of FAK protein listed as 10

According to the records, this molecule CS(=O)(=O)c1cccc(CNc2nc(Nc3ccc(C(=O)N4CCN(CCCCCNC(=O)COc5cccc6c5C(=O)N(C5CCC(=O)NC5=O)C6=O)CC4)cc3)ncc2C(F)(F)F)c1 (stereo not drawn) displays Concentration of maximal degradation of FAK protein of 100

# Concentration of maximal degradation of FAK protein of CNC(=O)c1ccccc1Nc1cc(Nc2ccc(N3CCN(CCCCCCCCNc4cccc5c4C(=O)N(C4CCC(=O)NC4=O)C5=O)CC3)cc2OC)ncc1C(F)(F)F (stereo not drawn) = 100
